Target: P. falciparum apicoplast DNA polymerase (Pf-apPOL) (Plasmodium falciparum)
Assay: Fluorescence-based high-throughput DNA polymerase assay (molecular beacon), primary screen and dose-response
Assay type: biochemical
Details: DRC-2, 90', concentration 10
measured-attribute: % inhibition ApPOL 90' (%)
A number alone suffices; assume %.

// known answers, use as guide
Which % inhibition ApPOL 90' value is on record for O=C(c1c[nH]c2ncccc12)N1CCCCCC1 [Molecule 51, O=C(c1c[nH]c2c1cccn2)N1CCCCCC1] ?
25

Given CC1=NNC(=O)C1Oc1ccc(Cl)cc1Cl (stereo not shown) , state its recorded % inhibition ApPOL 90'.
9

Look at this molecule and give its reported % inhibition ApPOL 90'. O=C(NNC(=O)C(F)(F)Sc1ccccc1)c1ccsc1 [Molecule 68, O=C(C(Sc1ccccc1)(F)F)NNC(=O)c1cscc1]
15

***
Bench note: what % inhibition ApPOL 90' did `O=[N+]([O-])c1cc2c(cc1CN1CCCCCC1)OCO2` show?
16

* * *

Target: P. falciparum apicoplast DNA polymerase (Pf-apPOL) (Plasmodium falciparum, UniProt Q8ILY1)
Sequence (Q8ILY1 entry or part of it): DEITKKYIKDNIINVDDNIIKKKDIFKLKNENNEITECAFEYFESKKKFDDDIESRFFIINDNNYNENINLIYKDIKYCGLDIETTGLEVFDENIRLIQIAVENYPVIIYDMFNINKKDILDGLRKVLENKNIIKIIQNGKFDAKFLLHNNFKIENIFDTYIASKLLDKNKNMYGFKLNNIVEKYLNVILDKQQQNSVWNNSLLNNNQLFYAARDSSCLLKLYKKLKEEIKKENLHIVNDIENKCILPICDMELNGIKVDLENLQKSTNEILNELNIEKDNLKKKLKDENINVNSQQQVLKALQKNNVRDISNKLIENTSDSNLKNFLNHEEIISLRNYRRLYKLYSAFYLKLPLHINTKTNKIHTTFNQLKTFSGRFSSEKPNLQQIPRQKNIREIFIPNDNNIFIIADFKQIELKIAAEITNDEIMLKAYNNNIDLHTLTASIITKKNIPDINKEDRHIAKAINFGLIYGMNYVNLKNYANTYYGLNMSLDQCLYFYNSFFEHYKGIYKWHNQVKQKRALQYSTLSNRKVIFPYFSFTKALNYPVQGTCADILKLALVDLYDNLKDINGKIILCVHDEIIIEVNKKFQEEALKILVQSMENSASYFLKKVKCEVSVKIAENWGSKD
Experiment: Fluorescence-based high-throughput DNA polymerase assay (molecular beacon), primary screen and dose-response
Format: biochemical
Settings: DRC-2, 5', concentration 40
measured-attribute: % inhibition Apo pol 5' (%)
Supply the numeric figure in %, leaving out any unit text.

Example entries and their recorded answers appear below.
What measured % inhibition Apo pol 5' is associated with `O=C(Nc1nnc(-c2ccno2)o1)c1ccc2ncsc2c1` on P. falciparum apicoplast DNA polymerase (Pf-apPOL) (Plasmodium falciparum, UniProt Q8ILY1)?
37

What reported % inhibition Apo pol 5' corresponds to `O=C(Nc1nnc(-c2ccno2)o1)c1ccc2c(c1)OCO2` on P. falciparum apicoplast DNA polymerase (Pf-apPOL) (Plasmodium falciparum, UniProt Q8ILY1)?
33

Short answer please: % inhibition Apo pol 5', P. falciparum apicoplast DNA polymerase (Pf-apPOL) (Plasmodium falciparum, UniProt Q8ILY1), entry `COc1ccccc1CCC(=O)N1CCc2c(nc3cc(-c4ccccc4)[nH]n3c2=O)C1`
44

Hello, I am looking for reported % inhibition Apo pol 5' with P. falciparum apicoplast DNA polymerase (Pf-apPOL) (Plasmodium falciparum, UniProt Q8ILY1) for `CN1CC(=Cc2ccco2)C(=O)C(=Cc2ccco2)C1` . Could you help?
49

I'm curious: which % inhibition Apo pol 5' was measured for `O=C(O)c1c(F)c(F)c(-c2c(F)c(F)c(C(=O)O)c(F)c2F)c(F)c1F` tested on P. falciparum apicoplast DNA polymerase (Pf-apPOL) (Plasmodium falciparum, UniProt Q8ILY1)?
17

Form field - read-out: % inhibition Apo pol 5'; system: P. falciparum apicoplast DNA polymerase (Pf-apPOL) (Plasmodium falciparum, UniProt Q8ILY1); submitted item: CSC(C)C(=O)C=CN(C)C (stereo not drawn)
46

What reported % inhibition Apo pol 5' corresponds to `COc1ccc2c(c1)CCc1c-2nc2ccc(Br)cc2c1C(=O)O` on P. falciparum apicoplast DNA polymerase (Pf-apPOL) (Plasmodium falciparum, UniProt Q8ILY1)?
53

What measured % inhibition Apo pol 5' is associated with `Cc1ncc(CSc2nc(C(C)(C)C)cs2)c(CO)c1O` on P. falciparum apicoplast DNA polymerase (Pf-apPOL) (Plasmodium falciparum, UniProt Q8ILY1)?
45

New cases:
Tell me reported % inhibition Apo pol 5' for `O=C(O)CC1=NN(c2cccc([N+](=O)[O-])c2)C(=O)C1` , tested with P. falciparum apicoplast DNA polymerase (Pf-apPOL) (Plasmodium falciparum, UniProt Q8ILY1).
58

GET /values?readout=% inhibition Apo pol 5'&system=P. falciparum apicoplast DNA polymerase (Pf-apPOL) (Plasmodium falciparum, UniProt Q8ILY1)&item= `O=c1cc(-c2ccccc2)oc2c(O)c(O)ccc12`
41

Lookup: % inhibition Apo pol 5' / P. falciparum apicoplast DNA polymerase (Pf-apPOL) (Plasmodium falciparum, UniProt Q8ILY1) / `CN(C)C=CC(=O)c1ccccn1`
50

Write down the reported % inhibition Apo pol 5' of `CCSc1nnc(NC(=O)Cc2csc(NC(=O)c3cnccn3)n2)s1` , test system: P. falciparum apicoplast DNA polymerase (Pf-apPOL) (Plasmodium falciparum, UniProt Q8ILY1).
55

Write down the reported % inhibition Apo pol 5' of `COc1cc(/C=C2\S/C(=N/C(C)=O)NC2=O)cc(Br)c1OCC(=O)O` , test system: P. falciparum apicoplast DNA polymerase (Pf-apPOL) (Plasmodium falciparum, UniProt Q8ILY1).
52

Give the reported % inhibition Apo pol 5' for CCOc1ccccc1-c1nc(-c2ccc(=O)[nH]c2)no1 [Molecule 76, CCOc1ccccc1c1onc(n1)c1ccc(=O)[nH]c1] (system: P. falciparum apicoplast DNA polymerase (Pf-apPOL) (Plasmodium falciparum, UniProt Q8ILY1)).
44

API: value(readout= % inhibition Apo pol 5', system= P. falciparum apicoplast DNA polymerase (Pf-apPOL) (Plasmodium falciparum, UniProt Q8ILY1), query= `Cc1nn(CC(=O)NCCSCc2ccco2)c(C)c1Br` )
43

Notebook entry, P. falciparum apicoplast DNA polymerase (Pf-apPOL) (Plasmodium falciparum, UniProt Q8ILY1) assay: % inhibition Apo pol 5' of `COc1ccc(C(=O)Nc2cccc(-c3nc4ncccc4o3)c2)cc1[N+](=O)[O-]` = ?
29

# get_value(readout= % inhibition Apo pol 5', system= P. falciparum apicoplast DNA polymerase (Pf-apPOL) (Plasmodium falciparum, UniProt Q8ILY1)) for O=C(NNC(=O)C(F)(F)Sc1ccccc1)c1ccsc1 [Molecule 68, O=C(C(Sc1ccccc1)(F)F)NNC(=O)c1cscc1]
47

Find the measured % inhibition Apo pol 5': item `CS(=O)(=O)c1cccc(C(=O)Nc2nnc(-c3ccno3)o2)c1` , target or system P. falciparum apicoplast DNA polymerase (Pf-apPOL) (Plasmodium falciparum, UniProt Q8ILY1).
32
